Biological target: T1, human CD22, endogenous on Raji cells (human, UniProt P20273 20-847)
T1 construct: whole, on cells; Endogenous protein of the Raji cell line
T1 sequence (looked up): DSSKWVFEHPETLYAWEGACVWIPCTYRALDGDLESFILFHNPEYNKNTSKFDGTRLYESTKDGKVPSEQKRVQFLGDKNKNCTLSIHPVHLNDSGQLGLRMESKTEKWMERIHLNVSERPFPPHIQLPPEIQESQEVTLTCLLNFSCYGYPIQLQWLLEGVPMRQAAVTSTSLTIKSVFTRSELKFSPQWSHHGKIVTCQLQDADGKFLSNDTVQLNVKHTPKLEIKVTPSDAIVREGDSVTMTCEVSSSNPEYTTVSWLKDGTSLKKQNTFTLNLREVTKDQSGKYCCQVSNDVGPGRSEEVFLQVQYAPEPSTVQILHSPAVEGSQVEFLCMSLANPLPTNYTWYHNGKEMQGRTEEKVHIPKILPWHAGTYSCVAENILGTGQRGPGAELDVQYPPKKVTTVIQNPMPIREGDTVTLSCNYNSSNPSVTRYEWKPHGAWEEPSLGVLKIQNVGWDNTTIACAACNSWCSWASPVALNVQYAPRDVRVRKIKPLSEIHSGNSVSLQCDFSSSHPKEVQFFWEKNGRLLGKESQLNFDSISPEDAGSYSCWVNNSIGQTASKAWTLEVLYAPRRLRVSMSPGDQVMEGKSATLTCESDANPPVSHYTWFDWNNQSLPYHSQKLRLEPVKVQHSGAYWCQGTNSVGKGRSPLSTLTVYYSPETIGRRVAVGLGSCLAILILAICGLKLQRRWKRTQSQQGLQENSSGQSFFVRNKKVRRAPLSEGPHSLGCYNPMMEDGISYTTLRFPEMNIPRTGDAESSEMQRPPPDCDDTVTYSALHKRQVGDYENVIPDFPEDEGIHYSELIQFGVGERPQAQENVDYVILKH
Test: FACS, Raji cells
Recorded Maximum mean fluorescence intensity values for a group of binders are listed next.
REPORTED METRIC: Maximum mean fluorescence intensity

{"BINDER": "HA22-hIgG1 (antibody, V domains shown) VH: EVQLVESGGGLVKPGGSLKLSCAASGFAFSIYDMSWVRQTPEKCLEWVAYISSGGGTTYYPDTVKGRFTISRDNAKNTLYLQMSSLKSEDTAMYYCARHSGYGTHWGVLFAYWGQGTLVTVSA VL: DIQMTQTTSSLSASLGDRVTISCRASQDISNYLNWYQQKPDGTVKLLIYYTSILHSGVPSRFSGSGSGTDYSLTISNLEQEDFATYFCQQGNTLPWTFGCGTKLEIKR", "VALUE": "19700 MFI"}
{"BINDER": "F2.205.9 human-murine chimeric antibody (antibody, human IgG1, lambda, V domains shown, Chimeric, human IgG1 / lambda; VL tied by name) VH: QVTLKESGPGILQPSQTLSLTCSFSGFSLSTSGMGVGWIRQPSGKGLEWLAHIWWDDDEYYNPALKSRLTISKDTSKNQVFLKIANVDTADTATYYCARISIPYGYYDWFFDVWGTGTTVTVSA VL: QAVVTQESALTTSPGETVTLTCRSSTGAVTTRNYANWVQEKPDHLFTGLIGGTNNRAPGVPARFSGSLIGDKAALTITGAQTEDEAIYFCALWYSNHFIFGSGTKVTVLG", "VALUE": "15500 MFI"}
{"BINDER": "F2.99.1 human-murine chimeric antibody (antibody, human IgG1, lambda, V domains shown, Chimeric, human IgG1 / lambda; VL tied by name) VH: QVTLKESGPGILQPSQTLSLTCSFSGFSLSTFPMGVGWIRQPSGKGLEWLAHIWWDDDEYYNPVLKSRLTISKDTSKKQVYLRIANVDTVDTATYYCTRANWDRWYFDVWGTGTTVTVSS VL: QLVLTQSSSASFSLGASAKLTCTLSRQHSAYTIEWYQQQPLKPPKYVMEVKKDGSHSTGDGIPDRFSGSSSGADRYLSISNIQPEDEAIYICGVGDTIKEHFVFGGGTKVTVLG", "VALUE": "18100 MFI"}
{"BINDER": "F2.70.2 human-murine chimeric antibody (antibody, human IgG1, lambda, V domains shown, Chimeric, human IgG1 / lambda) VH: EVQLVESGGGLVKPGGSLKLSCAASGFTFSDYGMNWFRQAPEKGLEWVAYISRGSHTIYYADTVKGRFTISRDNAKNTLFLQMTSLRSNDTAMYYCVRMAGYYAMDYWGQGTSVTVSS VL: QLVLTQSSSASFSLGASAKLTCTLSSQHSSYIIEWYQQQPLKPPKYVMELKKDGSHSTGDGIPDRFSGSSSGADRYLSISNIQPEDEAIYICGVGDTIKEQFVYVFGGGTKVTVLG", "VALUE": "16600 MFI"}
{"BINDER": "F2.121.9 human-murine chimeric antibody (antibody, human IgG1, lambda, V domains shown, Chimeric, human IgG1 / lambda) VH: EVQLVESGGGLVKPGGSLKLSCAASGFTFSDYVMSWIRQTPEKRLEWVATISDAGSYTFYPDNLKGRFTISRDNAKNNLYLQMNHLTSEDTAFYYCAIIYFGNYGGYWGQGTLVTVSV VL: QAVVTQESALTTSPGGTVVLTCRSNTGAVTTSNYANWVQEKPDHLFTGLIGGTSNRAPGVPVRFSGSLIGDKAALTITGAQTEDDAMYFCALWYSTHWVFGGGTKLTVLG", "VALUE": "18900 MFI"}
